# assay name: self-splicing fitness, log relative to wild type (ln ratio); higher = more splicing; Tetrahymena group I intron in knt gene, E. coli kanamycin selection, DiMSum; sequences stand for … in CUCUCU…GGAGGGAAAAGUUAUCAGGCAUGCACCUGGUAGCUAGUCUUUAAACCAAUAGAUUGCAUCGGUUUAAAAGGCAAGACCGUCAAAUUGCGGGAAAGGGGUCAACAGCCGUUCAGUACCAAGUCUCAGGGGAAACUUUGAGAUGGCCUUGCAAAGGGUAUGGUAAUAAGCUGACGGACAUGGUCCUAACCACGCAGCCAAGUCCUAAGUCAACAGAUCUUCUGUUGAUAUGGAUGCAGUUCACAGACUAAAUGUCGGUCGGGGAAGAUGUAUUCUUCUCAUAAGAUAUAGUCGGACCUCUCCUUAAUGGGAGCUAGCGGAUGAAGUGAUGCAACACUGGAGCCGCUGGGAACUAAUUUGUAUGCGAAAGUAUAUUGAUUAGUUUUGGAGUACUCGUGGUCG;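 note: selection with 25 µg/mL kanamycin versus none on LB agar overnight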
# particulars: 37 °C
Classification by self-splicing fitness (ln) | ranges: class A (below -2), class B (-2 to below -0.7), class C (-0.7 or more)

# primary sequence, qualitative label
records = [
    ("CAUUAGCAAUAUUACGUAUU", "class A"),
    ("AUUAAGCAAUAUUACGCGGU", "class A"),
    ("AAUAAGCAAUAUUACGAACU", "class C"),
    ("CUGCAGCAAUAUUACGACUA", "class B"),
    ("GCACAGCAAUAUUACGUUGG", "class B"),
    ("CAGAAGCAAUAUUACGCAUU", "class A"),
    ("AGAUAGCAAUAUUACGCAUG", "class B"),
    ("UGAUAGCAAUAUUACGGUCU", "class C"),
    ("CCAGAGCAAUAUUACGGAAC", "class A"),
    ("GAACAGCAAUAUUACGUCUA", "class C"),
    ("AAGGAGCAAUAUUACGUGCG", "class A"),
    ("UACUAGCAAUAUUACGACUU", "class C"),
    ("GCACAGCAAUAUUACGGCGU", "class C"),
    ("UAGCAGCAAUAUUACGCCCA", "class C"),
    ("CGUUAGCAAUAUUACGCCAG", "class C"),
    ("CGAGAGCAAUAUUACGGAUA", "class B"),
    ("GCUCAGCAAUAUUACGUAAU", "class C"),
    ("UUUAAGCAAUAUUACGAUUC", "class B"),
    ("GCUCAGCAAUAUUACGGCUG", "class A"),
    ("GGGAAGCAAUAUUACGGCUC", "class C"),
    ("CGGGAGCAAUAUUACGACGU", "class B"),
    ("AGUUAGCAAUAUUACGUACG", "class C"),
    ("CAUUAGCAAUAUUACGCGCG", "class C"),
    ("CUGAAGCAAUAUUACGAGUC", "class A"),
    ("UAUCAGCAAUAUUACGAAAU", "class B"),
    ("GUGGAGCAAUAUUACGAUGC", "class B"),
    ("GGUUAGCAAUAUUACGGGCU", "class B"),
    ("UGUCAGCAAUAUUACGUGGA", "class C"),
    ("GAGGAGCAAUAUUACGGAUC", "class C"),
    ("AUCGAGCAAUAUUACGGGGG", "class A"),
    ("ACCUAGCAAUAUUACGUAUC", "class B"),
    ("GAUCAGCAAUAUUACGCGUU", "class B"),
    ("CAGGAGCAAUAUUACGUAUC", "class A"),
    ("AUCGAGCAAUAUUACGGUCA", "class A"),
    ("GUAAAGCAAUAUUACGACGA", "class C"),
    ("GACCAGCAAUAUUACGGUCU", "class A"),
    ("CAUCAGCAAUAUUACGCUCG", "class C"),
    ("UAUUAGCAAUAUUACGGGAG", "class A"),
    ("AAACAGCAAUAUUACGAAAG", "class B"),
    ("CAUAAGCAAUAUUACGCGCA", "class C"),
    ("AUAGAGCAAUAUUACGGAAA", "class A"),
    ("GUGGAGCAAUAUUACGAGGC", "class B"),
    ("ACUAAGCAAUAUUACGCCGG", "class B"),
    ("AACGAGCAAUAUUACGGACC", "class B"),
    ("UGCUAGCAAUAUUACGACCG", "class C"),
    ("GCCUAGCAAUAUUACGGAAA", "class B"),
    ("GGUAAGCAAUAUUACGGAUG", "class A"),
    ("UUUAAGCAAUAUUACGUGAG", "class C"),
    ("CUUUAGCAAUAUUACGCAAG", "class B"),
    ("GGAUAGCAAUAUUACGCUGG", "class B"),
    ("GUAGAGCAAUAUUACGUGCC", "class A"),
    ("GCUUAGCAAUAUUACGGACU", "class C"),
    ("AGCGAGCAAUAUUACGAGAG", "class A"),
    ("AAGCAGCAAUAUUACGGCAA", "class C"),
    ("AAGUAGCAAUAUUACGUUGG", "class A"),
    ("CAAUAGCAAUAUUACGAAAU", "class A"),
    ("GGCUAGCAAUAUUACGUAAU", "class C"),
    ("ACGGAGCAAUAUUACGGUUC", "class B"),
    ("AAAAAGCAAUAUUACGCGAU", "class B"),
    ("CGGGAGCAAUAUUACGUGGU", "class A"),
    ("GGGAAGCAAUAUUACGUCUC", "class A"),
    ("GUGUAGCAAUAUUACGGCGU", "class B"),
    ("AUGAAGCAAUAUUACGCGGC", "class A"),
    ("AAAUAGCAAUAUUACGUCUC", "class B"),
]

Data credit: the supplement of paper PMC7877785
